All figures here come from ChEMBL document CHEMBL4619776.

Molecular target: UniProt:Q9BV86
Test: Inhibition of NTMT1 (unknown origin) pre-incubated for 10 mins before GPKRIA peptide substrate addition by SAHH coupled fluorescence assay
Details: read-out: IC50
IC50 values, listed per item
Please state the figure in nM; there is no need to write the unit.

input_smiles	measured_target	reported_measurement
N=C(N)NCCC[C@H](NC(=O)[C@H](CCCCN)NC(=O)[C@@H]1CCCN1C(=O)CNCCN(CC[C@H](N)C(=O)O)C[C@H]1O[C@@H](n2cnc3c(N)ncnc32)[C@H](O)[C@@H]1O)C(N)=O	UniProt:Q9BV86	320

Consider the record given below.
[ask] Sample CC[C@H](C)[C@H](NC(=O)[C@H](CCCNC(=N)N)NC(=O)[C@H](CCCCN)NC(=O)[C@@H]1CCCN1C(=O)CNCCN(CC[C@H](N)C(=O)O)C[C@H]1O[C@@H](n2cnc3c(N)ncnc32)[C@H](O)[C@@H]1O)C(=O)N[C@@H](C)C(N)=O — what was its IC50?
[reply] 260

====

Molecular target: N-terminal Xaa-Pro-Lys N-methyltransferase 1 (Homo sapiens, UniProt Q9BV86)
Assay: Inhibition of NTMT1 (unknown origin) pre-incubated for 10 mins before GPKRIA peptide substrate addition by SAHH coupled fluorescence assay
Conditions: read-out: IC50
IC50 values, listed per item
Please state the figure in nM; there is no need to write the unit.

Record excerpt, results attached:
input_smiles	reported_measurement
CC[C@H](C)[C@H](NC(=O)[C@H](CCCNC(=N)N)NC(=O)[C@H](CCCCN)NC(=O)[C@@H]1CCCN1C(=O)CNCCCCN(CC[C@H](N)C(=O)O)C[C@H]1O[C@@H](n2cnc3c(N)ncnc32)[C@H](O)[C@@H]1O)C(=O)N[C@@H](C)C(N)=O	82
N=C(N)NCCC[C@H](NC(=O)[C@H](CCCCN)NC(=O)[C@@H]1CCCN1C(=O)CNCCCN(CC[C@H](N)C(=O)O)C[C@H]1O[C@@H](n2cnc3c(N)ncnc32)[C@H](O)[C@@H]1O)C(N)=O	200
CC[C@H](C)[C@H](NC(=O)[C@H](CCCNC(=N)N)NC(=O)[C@H](CCCCN)NC(=O)[C@@H]1CCCN1C(=O)CNCCCN(CC[C@H](N)C(=O)O)C[C@H]1O[C@@H](n2cnc3c(N)ncnc32)[C@H](O)[C@@H]1O)C(=O)N[C@@H](C)C(N)=O	130

[ask] Sample N=C(N)NCCC[C@H](NC(=O)[C@H](CCCCN)NC(=O)[C@@H]1CCCN1C(=O)CNCCCCN(CC[C@H](N)C(=O)O)C[C@H]1O[C@@H](n2cnc3c(N)ncnc32)[C@H](O)[C@@H]1O)C(N)=O — what was its IC50?
[reply] 84

====

Target: N-terminal Xaa-Pro-Lys N-methyltransferase 1 (Homo sapiens)
Sequence (Q9BV86 whole entry): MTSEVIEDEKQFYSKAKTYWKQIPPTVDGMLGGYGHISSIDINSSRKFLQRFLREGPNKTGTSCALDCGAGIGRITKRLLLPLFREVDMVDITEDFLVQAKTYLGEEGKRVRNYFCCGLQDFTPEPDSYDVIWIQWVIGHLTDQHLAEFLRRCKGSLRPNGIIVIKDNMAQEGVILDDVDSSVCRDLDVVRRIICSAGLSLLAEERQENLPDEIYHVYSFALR
Assay: Binding affinity to NTMT1 (unknown origin) assessed as binding constant Kd1 by ITC assay
endpoint_label: Kd (µM)
Please state the figure in µM; there is no need to write the unit.

input_smiles	endpoint_label	reported_measurement
CC[C@H](C)[C@H](NC(=O)[C@H](CCCNC(=N)N)NC(=O)[C@H](CCCCN)NC(=O)[C@@H]1CCCN1C(=O)CNCCCCN(CC[C@H](N)C(=O)O)C[C@H]1O[C@@H](n2cnc3c(N)ncnc32)[C@H](O)[C@@H]1O)C(=O)N[C@@H](C)C(N)=O	Kd	0.31
CC[C@H](C)[C@H](NC(=O)[C@H](CCCNC(=N)N)NC(=O)[C@H](CCCCN)NC(=O)[C@@H]1CCCN1C(=O)CNCCN(CC[C@H](N)C(=O)O)C[C@H]1O[C@@H](n2cnc3c(N)ncnc32)[C@H](O)[C@@H]1O)C(=O)N[C@@H](C)C(N)=O	Kd	0.98
CC[C@H](C)[C@H](NC(=O)[C@H](CCCNC(=N)N)NC(=O)[C@H](CCCCN)NC(=O)[C@@H]1CCCN1C(=O)CNCCCCCN(CC[C@H](N)C(=O)O)C[C@H]1O[C@@H](n2cnc3c(N)ncnc32)[C@H](O)[C@@H]1O)C(=O)N[C@@H](C)C(N)=O	Kd	1.6

Consider the record given below.
[ask] Sample CC[C@H](C)[C@H](NC(=O)[C@H](CCCNC(=N)N)NC(=O)[C@H](CCCCN)NC(=O)[C@@H]1CCCN1C(=O)CNCCCN(CC[C@H](N)C(=O)O)C[C@H]1O[C@@H](n2cnc3c(N)ncnc32)[C@H](O)[C@@H]1O)C(=O)N[C@@H](C)C(N)=O — what was its Kd?
[reply] 2.4
